# Species: Rattus norvegicus
# method: Open TG-GATES - Regimen: Daily Repeat
# Format: toxicity, organism-based, Sprague-Dawley
# Design: regimen Daily Repeat, gender Male, age 6 weeks
# conditions: in vivo, po, 0 mg/kg, […], route gavage, dose level Control, time 14 day
# TERMINAL_BW values compiled below
Provide only the numeric value, understood in g.

Completed entries (count: 6):
compound=C=C(C)[C@H]1Cc2c(ccc3c2O[C@@H]2COc4cc(OC)c(OC)cc4[C@@H]2C3=O)O1 unit_abbrev=g measured_number=305.5
compound=Cn1cc[nH]c1=S unit_abbrev=g measured_number=307.5
compound=C[C@H]1C(=O)O[C@@H]2CCN3CC=C(COC(=O)[C@](C)(O)[C@]1(C)O)[C@H]23 unit_abbrev=g measured_number=315.5
compound=O=C1CN(/N=C/c2ccc([N+](=O)[O-])o2)C(=O)N1 unit_abbrev=g measured_number=331.5
compound=OCCN1CCN(CCCN2c3ccccc3Sc3ccc(C(F)(F)F)cc32)CC1 unit_abbrev=g measured_number=300.9
compound="C[C@H]1O[C@H](O[C@H]2[C@H](O)[C@@H](O)[C@@H](O[C@H]3[C@H](O)[C@@H](O)C(O)O[C@@H]3CO)O[C@@H]2CO)[C@H](O)[C@@H](O)[C@@H]1N[C@H]1C=C(CO)[C@@H](O)[C@H](O)[C@H]1O (some centres undefined)" unit_abbrev=g measured_number=316.7

TERMINAL_BW measured on Cc1cccc(C)c1OCC(C)N (centres undefined) = 321.8

Per the records, this compound ( O=[N+]([O-])c1ccc(O)c([N+](=O)[O-])c1 ) has TERMINAL_BW equal to 341.5

TERMINAL_BW measured on CCOC(=O)C(C)(C)Oc1ccc(Cl)cc1 [CLOFIBRATE] = 332
